Entry source: ChEMBL document CHEMBL3232705

# System: Mus musculus
# PROTOCOL_TEXT: Antiallergic inflammatory activity in oxazolone induced contact hypersensitivity mouse model assessed as reduction ear swelling at 3 mg/kg, po prior to oxazolone and 7 hrs post challenge measured after 24 hrs
# Assay type: functional
METRIC_NAME: inhibition in vivo at 3 mg/kg (%)
Value expressed in %; do not type the unit.

Example cases with answers are listed next.
CPD_SMILES: Cc1c(-c2cn(CCCC(F)(F)F)c(=O)c3ccccc23)c2cc(F)ccc2n1CC(=O)O
MEASUREMENT_UNITS: %
TEST_VALUE: 30.4
//
CPD_SMILES: Cc1c(-c2cn(CC(F)(F)F)c(=O)c3ccccc23)c2cc(F)ccc2n1CC(=O)O
MEASUREMENT_UNITS: %
TEST_VALUE: 32.8
//
CPD_SMILES: Cc1c(-c2cn(CC(C)(C)C)c(=O)c3ccccc23)c2cc(F)ccc2n1CC(=O)O
MEASUREMENT_UNITS: %
TEST_VALUE: 47.4

# evaluate next
// query I am curious: what inhibition in vivo at 3 mg/kg value has been reported for Cc1c(-c2cn(C(C)C)c(=O)c3ccccc23)c2cc(F)ccc2n1CC(=O)O ?
// result 50.5

====

# STUDY_SYSTEM: Prostaglandin D2 receptor 2 (Homo sapiens)
# Sequence (Q9Y5Y4 whole entry): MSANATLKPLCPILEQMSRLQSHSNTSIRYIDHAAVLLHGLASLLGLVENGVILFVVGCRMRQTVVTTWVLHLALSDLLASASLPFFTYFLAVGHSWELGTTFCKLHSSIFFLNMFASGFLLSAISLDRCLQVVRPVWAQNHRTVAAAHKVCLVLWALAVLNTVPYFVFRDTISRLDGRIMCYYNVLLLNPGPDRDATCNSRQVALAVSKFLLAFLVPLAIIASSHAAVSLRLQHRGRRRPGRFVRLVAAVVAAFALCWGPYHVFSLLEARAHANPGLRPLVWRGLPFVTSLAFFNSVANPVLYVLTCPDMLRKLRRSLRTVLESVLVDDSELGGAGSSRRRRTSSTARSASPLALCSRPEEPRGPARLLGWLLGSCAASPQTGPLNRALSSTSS
# PROTOCOL_TEXT: Antagonist activity at human recombinant CRTh2 expressed in CHO-K1 cells by cAMP TR FRET assay
# Format: functional, cell-based
# label = 1.0 if IC50 < 20 nM else 0.0

// query I wonder whether Cc1c(Cc2ccc(=O)n(Cc3cc(F)ccc3F)n2)c2cc(F)ccc2n1CC(=O)O has IC50 below 20 nM. Can you tell?
// result 1.0

// query Next compound: Cc1c(Cc2ccc(=O)n(Cc3cccc(F)c3)n2)c2cc(F)ccc2n1CC(=O)O
// result 1.0

// query Next compound: Cc1c(-c2cn(CCCC(F)(F)F)c(=O)c3ccccc23)c2cc(F)ccc2n1CC(=O)O
// result 1.0

// query Next compound: Cc1c(-c2ccc(=O)n(CCCC(F)(F)F)c2)c2cc(F)ccc2n1CC(=O)O
// result 1.0

// query Next compound: Cc1c(-c2ccc(=O)n(CC(F)(F)F)c2)c2cc(F)ccc2n1CC(=O)O
// result 0.0

// query Next compound: Cc1c(-c2ccc(=O)n(C(C)C)c2)c2cc(F)ccc2n1CC(=O)O
// result 0.0

====

# PROTOCOL_TEXT: Half life in monkey at 2 mg/kg, iv
# Type: ADME, organism-based, Macaca mulatta
# Parameters: dose 2 mg/kg, route intravenous
# CONDITION_NOTES: rhesus monkey, in vivo
METRIC_NAME: half-life (h)
Value expressed in h; do not type the unit.

CPD_SMILES: Cc1c(-c2cn(C(C)C)c(=O)c3ccccc23)c2cc(F)ccc2n1CC(=O)O
half-life [h]: 4.1

# evaluate next
// query I am curious: what half-life value has been reported for Cc1c(Cc2ccc(=O)n(Cc3ccc(F)cc3F)n2)c2cc(F)ccc2n1CC(=O)O ?
// result 2.3

====

Below is a list of entries, each paired with its recorded pIC50 value.
# STUDY_SYSTEM: Prostaglandin D2 receptor 2 (Homo sapiens)
# PROTOCOL_TEXT: Antagonist activity at human recombinant CRTh2 expressed in CHO-K1 cells by cAMP TR FRET assay
# Type: functional, cell-based
// pIC50 here means minus log10 of the molar concentration (mol/L)

Example cases with answers are listed next.
CPD_SMILES: Cc1c(Cc2ccc(=O)n(CCCC(F)(F)F)c2)c2cc(F)ccc2n1CC(=O)O
METRIC_NAME: pIC50
TEST_VALUE: 6.82
//
CPD_SMILES: Cc1c(Cc2ccc(=O)n(CC(F)(F)F)n2)c2cc(F)ccc2n1CC(=O)O
METRIC_NAME: pIC50
TEST_VALUE: 7.74
//
CPD_SMILES: Cc1c(-c2ccc(=O)n(CC(F)(F)F)c2)c2cc(Cl)ccc2n1CC(=O)O
METRIC_NAME: pIC50
TEST_VALUE: 6.83

// query Form field - read-out: pIC50; system: Prostaglandin D2 receptor 2 (Homo sapiens); submitted item: Cc1c(Cc2ccc(=O)n(Cc3ccc(F)cc3F)c2)c2cc(F)ccc2n1CC(=O)O
// result 8.40
